tested on: PPARg:RXRa 90nM:30nM, anti-RXR (NR concentration 90 nM, RXRa partner concentration 30 nM); assay: PBM binding z-score (relative to random genomic background probes); higher = stronger binding; sequences stand for … in GC…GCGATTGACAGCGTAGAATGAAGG
Measured PBM binding z-score accompanies every entry in the list below.

Study these solved cases before continuing.
[
  {
    "SEQUENCE_RECORD": "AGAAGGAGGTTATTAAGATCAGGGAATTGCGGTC",
    "ENDPOINT_VALUE": 0.827
  },
  {
    "SEQUENCE_RECORD": "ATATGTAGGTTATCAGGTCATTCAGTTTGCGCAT",
    "ENDPOINT_VALUE": 5.54
  }
]

Which PBM binding z-score value belongs to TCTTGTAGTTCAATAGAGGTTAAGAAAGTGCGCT ? 2.06

Which PBM binding z-score value belongs to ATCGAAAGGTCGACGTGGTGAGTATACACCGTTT ? 1.77

Which PBM binding z-score value belongs to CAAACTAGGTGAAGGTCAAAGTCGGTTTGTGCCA ? 6.44

Which PBM binding z-score value belongs to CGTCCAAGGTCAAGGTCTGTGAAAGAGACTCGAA ? 3.96

Which PBM binding z-score value belongs to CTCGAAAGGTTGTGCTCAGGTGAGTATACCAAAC ? 0.171

Which PBM binding z-score value belongs to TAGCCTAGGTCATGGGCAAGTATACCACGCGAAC ? 2.22

---

tested on: THRa:RXRa (NR concentration 90 nM, RXRa partner concentration 90 nM); assay: PBM binding z-score (relative to random genomic background probes); higher = stronger binding; sequences stand for … in GC…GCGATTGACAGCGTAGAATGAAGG
Measured PBM binding z-score accompanies every entry in the list below.
Lab note: jot the number down without any unit.

Study these solved cases before continuing.
[
  {
    "SEQUENCE_RECORD": "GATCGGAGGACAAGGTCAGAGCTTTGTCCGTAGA",
    "TESTED_ON": "THRa:RXRa (NR concentration 90 nM, RXRa partner concentration 90 nM)",
    "PBM binding z-score": 2.94
  },
  {
    "SEQUENCE_RECORD": "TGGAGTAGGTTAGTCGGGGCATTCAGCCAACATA",
    "TESTED_ON": "THRa:RXRa (NR concentration 90 nM, RXRa partner concentration 90 nM)",
    "PBM binding z-score": 1.48
  },
  {
    "SEQUENCE_RECORD": "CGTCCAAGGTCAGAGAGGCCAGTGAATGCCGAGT",
    "TESTED_ON": "THRa:RXRa (NR concentration 90 nM, RXRa partner concentration 90 nM)",
    "PBM binding z-score": 3.28
  },
  {
    "SEQUENCE_RECORD": "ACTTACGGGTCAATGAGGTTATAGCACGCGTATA",
    "TESTED_ON": "THRa:RXRa (NR concentration 90 nM, RXRa partner concentration 90 nM)",
    "PBM binding z-score": 4.16
  },
  {
    "SEQUENCE_RECORD": "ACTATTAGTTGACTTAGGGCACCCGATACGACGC",
    "TESTED_ON": "THRa:RXRa (NR concentration 90 nM, RXRa partner concentration 90 nM)",
    "PBM binding z-score": 0.993
  }
]

Which PBM binding z-score value belongs to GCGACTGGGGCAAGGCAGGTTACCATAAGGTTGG ? 2.41
